Data provenance is patent US10308639B2.

# pIC50 per entry
# test.system: PI3Kδ (Homo sapiens, UniProt O00329)
# Construct: made in house
# Sequence (O00329 whole entry): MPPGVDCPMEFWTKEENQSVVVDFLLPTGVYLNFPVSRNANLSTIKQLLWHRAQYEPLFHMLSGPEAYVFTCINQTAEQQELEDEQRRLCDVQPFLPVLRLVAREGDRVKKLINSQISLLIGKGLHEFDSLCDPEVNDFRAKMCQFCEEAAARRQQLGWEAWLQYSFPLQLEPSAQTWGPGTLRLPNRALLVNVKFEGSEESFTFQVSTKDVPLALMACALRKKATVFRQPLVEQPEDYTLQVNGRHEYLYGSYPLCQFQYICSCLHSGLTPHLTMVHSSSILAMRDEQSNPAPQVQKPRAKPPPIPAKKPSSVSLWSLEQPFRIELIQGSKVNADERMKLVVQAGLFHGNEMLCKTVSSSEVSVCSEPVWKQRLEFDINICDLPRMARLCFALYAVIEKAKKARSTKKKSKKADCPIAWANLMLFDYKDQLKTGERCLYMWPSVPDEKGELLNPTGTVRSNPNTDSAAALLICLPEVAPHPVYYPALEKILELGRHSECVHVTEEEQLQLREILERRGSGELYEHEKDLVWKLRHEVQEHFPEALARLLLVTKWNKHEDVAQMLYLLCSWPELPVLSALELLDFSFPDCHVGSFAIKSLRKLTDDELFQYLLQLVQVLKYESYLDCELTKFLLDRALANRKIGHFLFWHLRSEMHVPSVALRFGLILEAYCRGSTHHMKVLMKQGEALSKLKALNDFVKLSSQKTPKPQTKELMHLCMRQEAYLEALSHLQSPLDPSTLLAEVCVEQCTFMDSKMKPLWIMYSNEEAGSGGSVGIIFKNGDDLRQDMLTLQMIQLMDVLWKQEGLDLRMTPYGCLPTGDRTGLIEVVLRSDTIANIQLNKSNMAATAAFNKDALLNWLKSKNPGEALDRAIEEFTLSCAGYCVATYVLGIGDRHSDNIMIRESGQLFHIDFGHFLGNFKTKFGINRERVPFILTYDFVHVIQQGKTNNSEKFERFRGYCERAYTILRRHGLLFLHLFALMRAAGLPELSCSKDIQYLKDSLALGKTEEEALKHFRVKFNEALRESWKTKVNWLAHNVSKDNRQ
# Sequence (P27986 whole entry partner): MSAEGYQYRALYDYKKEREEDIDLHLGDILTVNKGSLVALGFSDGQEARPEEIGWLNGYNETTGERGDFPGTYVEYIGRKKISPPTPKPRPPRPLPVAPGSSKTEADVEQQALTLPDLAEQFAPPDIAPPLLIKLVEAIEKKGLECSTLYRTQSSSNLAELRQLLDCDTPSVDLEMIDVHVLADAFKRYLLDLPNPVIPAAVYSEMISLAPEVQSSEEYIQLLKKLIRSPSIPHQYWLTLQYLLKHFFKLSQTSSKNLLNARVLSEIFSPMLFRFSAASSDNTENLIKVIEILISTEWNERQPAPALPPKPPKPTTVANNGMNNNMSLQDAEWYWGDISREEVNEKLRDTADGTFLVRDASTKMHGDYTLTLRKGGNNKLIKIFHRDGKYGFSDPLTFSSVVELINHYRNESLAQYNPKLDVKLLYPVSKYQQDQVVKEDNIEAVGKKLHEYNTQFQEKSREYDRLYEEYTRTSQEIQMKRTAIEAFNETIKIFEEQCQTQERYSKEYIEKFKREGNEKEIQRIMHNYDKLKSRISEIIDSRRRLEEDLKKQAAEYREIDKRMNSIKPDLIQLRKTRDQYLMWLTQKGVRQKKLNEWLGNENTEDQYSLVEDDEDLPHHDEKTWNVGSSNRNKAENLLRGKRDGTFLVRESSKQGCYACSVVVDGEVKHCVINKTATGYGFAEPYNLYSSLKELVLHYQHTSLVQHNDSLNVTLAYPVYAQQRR
# assay.summary: TR-FRET enzymatic activity assay, PI3Kδ
# Assay type: biochemical
# condition.context: Table 2a; same assay
FYI, pIC50 means -log10 of a concentration in mol per litre.

Record excerpt, results attached:
C[C@H](Nc1nc(N)nc(N)c1Cl)c1nc2cccc(C(F)F)c2c(=O)n1-c1cn[nH]c1	8.30
C[C@H](Nc1nc(N)nc(N)c1Cl)c1nc2ccc(F)c(Cl)c2c(=O)n1-c1cc[nH]n1	8.22
C[C@H](Nc1nc(N)nc(N)c1Cl)c1nc2cc(F)cc(F)c2c(=O)n1-c1cc[nH]n1	6.92

Inquiry: Dear colleague, I am looking for the recorded pIC50 of the following compound: C[C@@H](Nc1nc(N)nc(N)c1Cl)c1nc2cccc(C(F)F)c2c(=O)n1-c1cc[nH]n1
Reply text: 7.11

Inquiry: Ok, now CCC[C@H](Nc1nc(N)nc(N)c1Cl)c1nc2cccc(Cl)c2c(=O)n1-c1cn[nH]c1
Reply text: 7.64

Inquiry: Ok, now C[C@H](Nc1nc(N)nc(N)c1Cl)c1nc2cccc(Cl)c2c(=O)n1-c1cc(N)[nH]n1
Reply text: 7.80

Inquiry: Ok, now C[C@H](Nc1nc(N)nc(N)c1Cl)c1nc2cccc(Cl)c2c(=O)n1-c1cc(Cl)[nH]n1
Reply text: 7.89
